- Tested on: Tankyrases
- Condition Label: read-out: EC50 [M] TNKS cellular assay; DLD1 cells, 24 hours, Axin2 increase
Counter-ions that a name gives are not always drawn.
Readout Label: log10(EC50) (log10 of the value in M)
Response schema: value (number) is log10 of EC50 in units of M.

[Q] # lookup: log10(EC50) of COc1ccc(C(=O)C2CCN(C(=O)CCCc3nn4cc(C)cc4c(=O)[nH]3)CC2)cc1C
[A] -8.77

[Q] Thanks! And COc1ccc(C(=O)C2CCN(C(=O)CCCc3nn4cccc4c(=O)[nH]3)CC2)cn1 ?
[A] -7.72

[Q] Thanks! And Cc1csc2c(=O)[nH]c(CCCC(=O)N3CCC(c4nnc(-c5ccccc5)o4)CC3)nc12 ?
[A] -7.85

[Q] Thanks! And COc1ccc(C(=O)C2CCN(C(=O)CCCc3nc4c(c(=O)[nH]3)COCC4)CC2)cn1 ?
[A] -7.00

[Q] Thanks! And Cc1ccc2c(=O)[nH]c(CCCC(=O)N3CCC(C(=O)c4cnn(C(C)C)c4)CC3)cn12 ?
[A] -7.85

[Q] Thanks! And COc1ccc(C(=O)C2CCN(C(=O)CCCc3nc4c(ccn4C)c(=O)[nH]3)CC2)cc1F ?
[A] -8.48

[Q] Thanks! And CC(C)n1cc(C(=O)C2CCN(C(=O)CCCc3nn4cccc4c(=O)[nH]3)CC2)cn1 ?
[A] -7.62

[Q] Thanks! And CCn1cc(C(=O)C2CCN(C(=O)CCCc3nc4c(C)csc4c(=O)[nH]3)CC2)cn1 [Compound C224, trifluoroacetate] ?
[A] -7.74

[Q] Thanks! And Cn1ccc2c(=O)[nH]c(CCCC(=O)N3CCC(C(=O)c4ccc(C(C)(F)F)cc4)CC3)nc21 ?
[A] -8.74

[Q] Thanks! And Cn1ncc2c(=O)[nH]c(CCCC(=O)N3CCC(C(=O)c4ccc(Cl)cc4)CC3)nc21 ?
[A] -7.68

[Q] Thanks! And COc1ccc(C(=O)C2CN(C(=O)CCCc3cn4cccc4c(=O)[nH]3)C2)cc1 [Compound D1] ?
[A] -6.27

[Q] Thanks! And Cn1cc(C(=O)C2CCN(C(=O)CCCc3cn4cc(F)cc4c(=O)[nH]3)CC2)cn1 ?
[A] -8.54

[Q] Thanks! And COc1ccc(C(=O)C2CCN(C(=O)CCCc3nn4cc(F)cc4c(=O)[nH]3)CC2)cc1 ?
[A] -8.51

[Q] Thanks! And CCn1cc(C(=O)C2CCN(C(=O)CCCc3nn4cc(C)cc4c(=O)[nH]3)CC2)cn1 ?
[A] -7.27

[Q] Thanks! And Cc1ccc2c(=O)[nH]c(CCCC(=O)N3CCC(c4cnc(N)c(C#N)c4)CC3)nn12 ?
[A] -8.51

[Q] Thanks! And COc1ccc(C(=O)C2CCN(C(=O)CCCc3nc4c(c(=O)[nH]3)COCC4)CC2)cc1C ?
[A] -8.48

###

- Target Entity: PARP-1 (Homo sapiens, UniProt P09874)
- Construct: purchased Enzo Life Sciences GmbH, Lörrach, Germany
- Sequence (P09874 whole entry): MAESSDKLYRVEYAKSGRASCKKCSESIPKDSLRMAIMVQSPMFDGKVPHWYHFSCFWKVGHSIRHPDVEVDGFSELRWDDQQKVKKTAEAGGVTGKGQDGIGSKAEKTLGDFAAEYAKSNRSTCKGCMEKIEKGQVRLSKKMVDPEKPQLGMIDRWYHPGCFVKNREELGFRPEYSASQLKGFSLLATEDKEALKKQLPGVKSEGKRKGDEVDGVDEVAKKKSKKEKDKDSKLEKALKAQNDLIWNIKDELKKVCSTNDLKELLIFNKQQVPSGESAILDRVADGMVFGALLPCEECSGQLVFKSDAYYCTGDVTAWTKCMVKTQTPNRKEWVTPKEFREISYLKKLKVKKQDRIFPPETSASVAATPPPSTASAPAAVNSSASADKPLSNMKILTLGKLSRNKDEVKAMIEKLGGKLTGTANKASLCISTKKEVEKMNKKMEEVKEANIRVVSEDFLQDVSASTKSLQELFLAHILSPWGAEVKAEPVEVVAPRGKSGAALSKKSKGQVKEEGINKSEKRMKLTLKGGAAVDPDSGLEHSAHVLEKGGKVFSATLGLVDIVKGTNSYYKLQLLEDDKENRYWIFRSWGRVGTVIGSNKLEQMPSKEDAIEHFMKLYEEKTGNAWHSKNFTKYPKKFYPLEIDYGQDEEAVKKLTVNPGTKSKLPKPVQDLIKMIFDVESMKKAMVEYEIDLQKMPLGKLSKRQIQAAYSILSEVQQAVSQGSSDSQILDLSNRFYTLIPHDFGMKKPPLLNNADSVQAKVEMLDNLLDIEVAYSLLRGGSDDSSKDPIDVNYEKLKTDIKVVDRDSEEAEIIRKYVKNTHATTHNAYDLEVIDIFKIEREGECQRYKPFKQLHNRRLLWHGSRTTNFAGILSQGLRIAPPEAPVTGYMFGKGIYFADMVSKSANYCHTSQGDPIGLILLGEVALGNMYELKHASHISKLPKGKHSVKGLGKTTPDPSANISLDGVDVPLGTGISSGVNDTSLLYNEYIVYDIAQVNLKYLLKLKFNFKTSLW
- Experiment Description: PARP-1 autoparsylation assay (HTRF)
- Assay type: biochemical
- Condition Label: His-tagged Parp-1, autoparsylation HTRF
Mark Fulfilled only when IC50 stays strictly below 6 µM. Values equal to the cut-off are Not fulfilled.

[Q] Dear colleague, could you confirm whether IC50 of COc1ccc(C(=O)C2CCN(C(=O)CCCc3nc4c(ccn4C)c(=O)[nH]3)CC2)cn1 falls below 6 µM? Thanks.
[A] Fulfilled

[Q] Thanks! And Cc1cc2c(=O)[nH]c(CCCC(=O)N3CCC(C(=O)c4cnn(C(C)C)c4)CC3)nn2c1 ?
[A] Not fulfilled

[Q] Thanks! And O=C(c1ccc(Cl)cc1)C1CCN(C(=O)CCCc2nn3cccc3c(=O)[nH]2)CC1 ?
[A] Not fulfilled

[Q] Thanks! And CC(C)n1cc(C(=O)C2CCN(C(=O)CCCc3nc4c(c(=O)[nH]3)COCC4)CC2)cn1 ?
[A] Not fulfilled

[Q] Thanks! And Cc1csc2c(=O)[nH]c(CCCC(=O)N3CCC(c4cnc(N)c(-c5ncccn5)c4)CC3)nc12 ?
[A] Fulfilled

[Q] Thanks! And O=C(CCCc1nn2cccc2c(=O)[nH]1)N1CCC(c2nnc(-c3ccccc3)o2)CC1 ?
[A] Fulfilled

[Q] Thanks! And COc1ccc(C(=O)C2CCN(C(=O)CCCc3nc4c(c(=O)[nH]3)COCC4)CC2)cc1F ?
[A] Not fulfilled

[Q] Thanks! And COc1ccc(C(=O)C2CCN(C(=O)CCCc3nc4c(ccn4C)c(=O)[nH]3)CC2)cc1F ?
[A] Fulfilled

###

For each entry below, report its EC50 value.
- System: Tankyrases
- Condition Label: read-out: EC50 [M] TNKS cellular assay; DLD1 cells, 24 hours, Axin2 increase
Give just the numeric value; M need not be written.

[Q] # lookup: EC50 of COc1ccc(C(=O)C2CCN(C(=O)CCCc3nc4c(C)csc4c(=O)[nH]3)CC2)cn1
[A] 1.3e-08

[Q] Thanks! And Cn1cc(C(=O)C2CCN(C(=O)CCCc3cn4cncc4c(=O)[nH]3)CC2)cn1 ?
[A] 1.1e-06

[Q] Thanks! And COc1ccc(C(=O)C2CCN(C(=O)CCCc3nc4c(c(=O)[nH]3)COCC4)CC2)cc1F ?
[A] 4.9e-08

[Q] Thanks! And CCn1cc(C(=O)C2CCN(C(=O)CCCc3nc4c(cnn4C)c(=O)[nH]3)CC2)cn1 ?
[A] 8.6e-08

[Q] Thanks! And Cc1cc2c(=O)[nH]c(CCCC(=O)N3CCC(c4cnc(N)c(C#N)c4)CC3)nn2c1 ?
[A] 4.9e-08

[Q] Thanks! And O=C(CCCc1cn2cccc2c(=O)[nH]1)N1CCC(c2nnc(-c3ccccc3)o2)CC1 ?
[A] 2.8e-08

[Q] Thanks! And O=C(CCCc1nc2c(c(=O)[nH]1)COCC2)N1CCC(c2nnc(-c3ccccc3)o2)CC1 ?
[A] 2e-06

[Q] Thanks! And COc1ccc(C(=O)C2CCN(C(=O)CCCc3cn4cccc4c(=O)[nH]3)CC2)cc1 ?
[A] 5e-10

###

- Experiment Description: Microsomal stability (intrinsic clearance), human liver microsomes
- Assay type: in vitro ADME
- Condition Label: pH 7.4
Readout Label: microsomal CLint (µL/min/mg)
Give just the numeric value; µL/min/mg need not be written.

[Q] # lookup: microsomal CLint of COc1ccc(C(=O)C2CCN(C(=O)CCCc3nc4ccccc4c(=O)[nH]3)CC2)cc1 [Compound A1, reference compound]
[A] 104

[Q] Thanks! And Cc1ccc2c(=O)[nH]c(CCCC(=O)N3CCC(C(=O)c4cnn(C)c4)CC3)nn12 ?
[A] 22

[Q] Thanks! And COc1ccc(C(=O)C2CCN(C(=O)CCCc3nc4c(cnn4C)c(=O)[nH]3)CC2)cc1 ?
[A] 25

[Q] Thanks! And COc1ccc(C(=O)C2CCN(C(=O)CCCc3nc4c(F)cc(F)cc4c(=O)[nH]3)CC2)cc1 [Compound A5, reference compound] ?
[A] 58

[Q] Thanks! And Cn1ncc2c(=O)[nH]c(CCCC(=O)N3CCC(C(=O)c4ccc(F)cc4)CC3)nc21 ?
[A] 20

[Q] Thanks! And COc1ccc(C(=O)C2CCN(C(=O)CCCc3nn4cccc4c(=O)[nH]3)CC2)cn1 ?
[A] 10

[Q] Thanks! And COc1ccc(C(=O)C2CCN(C(=O)CCCc3nc4c(cnn4C)c(=O)[nH]3)CC2)cn1 ?
[A] 15

[Q] Thanks! And CCn1cc(C(=O)C2CCN(C(=O)CCCc3nn4cccc4c(=O)[nH]3)CC2)cn1 ?
[A] 21

[Q] Thanks! And Cn1ncc2c(=O)[nH]c(CCCC(=O)N3CCC(c4cnc(N)c(-c5ncccn5)c4)CC3)nc21 ?
[A] 25

###

- Target Entity: TNKS1 (Homo sapiens, UniProt O95271)
- Construct: GST-tagged Tnks-1 (1023-1327 aa, prepared in-house); made in house
- Sequence (O95271 1023-1327): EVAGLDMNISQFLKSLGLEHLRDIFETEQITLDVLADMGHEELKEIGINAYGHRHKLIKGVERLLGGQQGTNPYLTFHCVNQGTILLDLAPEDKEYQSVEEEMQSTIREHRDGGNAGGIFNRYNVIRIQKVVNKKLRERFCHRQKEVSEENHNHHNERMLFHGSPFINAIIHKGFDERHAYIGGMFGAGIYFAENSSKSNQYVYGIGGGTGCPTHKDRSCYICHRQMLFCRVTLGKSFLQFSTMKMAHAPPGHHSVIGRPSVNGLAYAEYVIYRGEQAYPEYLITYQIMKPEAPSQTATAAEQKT
- Experiment Description: TNKS1 activity ELISA (autoparsylation assay)
- Assay type: biochemical
- Condition Label: GST-tagged Tnks-1 (1023-1327 aa)
For each entry below, report its IC50 value.
Give just the numeric value; nM need not be written.

[Q] # lookup: IC50 of CC(C)n1cc(C(=O)C2CCN(C(=O)CCCc3nn4cccc4c(=O)[nH]3)CC2)cn1 [Compound C219]
[A] 2

[Q] Thanks! And Cc1ccc2c(=O)[nH]c(CCCC(=O)N3CCC(C(=O)c4ccc(C(C)(C)O)cc4)CC3)nn12 [Compound C155] ?
[A] 0.57

[Q] Thanks! And CC(F)(F)c1ccc(C(=O)C2CCN(C(=O)CCCc3nc4c(c(=O)[nH]3)COCC4)CC2)cc1 [Compound C263] ?
[A] 5.1

[Q] Thanks! And CCn1cc(C(=O)C2CCN(C(=O)CCCc3nc4c(C)scc4c(=O)[nH]3)CC2)cn1 [Compound C216] ?
[A] 2.5

[Q] Thanks! And Cc1csc2c(=O)[nH]c(CCCC(=O)N3CCC(C(=O)c4ccc(F)cc4)CC3)nc12 [Compound C131] ?
[A] 0.36

[Q] Thanks! And Cn1cc(C(=O)C2CCN(C(=O)CCCc3cn4cccc4c(=O)[nH]3)CC2)cn1 [Compound C22] ?
[A] 0.25

[Q] Thanks! And Nc1ncc(C2CCN(C(=O)CCCc3nc4c(c(=O)[nH]3)COCC4)CC2)cc1-c1ncccn1 [Compound C195] ?
[A] 2.1

[Q] Thanks! And Cn1ccc2c(=O)[nH]c(CCCC(=O)N3CCC(C(=O)c4ccc(C(C)(F)F)cc4)CC3)nc21 [Compound C249] ?
[A] 0.42
